Tested on: Plasmodium falciparum
Test: In vitro antimalarial activity against Plasmodium falciparum.
Format: functional, organism-based
Consider the following compounds; for each one, report its pIC50.
Numbers only, as −log10 of the molar value.

- Compound: "COC1(c2ccc(F)cc2)C=CC2(CCCCCC2)OO1 (configuration not stated)"
  Property: "pIC50"
  Result Value: 7.07
- Compound: "COC1(c2ccc(Cl)cc2)C=CC2(CCCCC2)OO1 (configuration not stated)"
  Property: "pIC50"
  Result Value: 7.00

List pIC50 for every entry below, keeping the order given.
1. COC1(c2ccc(OC(F)(F)F)cc2)C=CC2(CCCCCC2)OO1 (configuration not stated)
2. COc1cc(C2(OC)C=CC3(CCCCCC3)OO2)cc(OC)c1OC (configuration not stated)
3. COC1(c2ccc(SC)cc2)C=CC2(CCCCC2)OO1 (configuration not stated)
4. COC1(c2ccc(SC)cc2)C=CC2(CCCCCC2)OO1 (configuration not stated)
5. COc1ccc(C2(OC)C=CC3(CCC3)OO2)cc1 (configuration not stated)

**Result**
1. 7.21
2. 6.92
3. 6.80
4. 7.11
5. 6.80
